Test: recombinant barcode read abundance after kanamycin selection (control-corrected) (log10(CPM+1)); higher = more efficient recombination; sequences stand for … in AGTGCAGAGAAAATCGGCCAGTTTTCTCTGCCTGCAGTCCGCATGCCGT…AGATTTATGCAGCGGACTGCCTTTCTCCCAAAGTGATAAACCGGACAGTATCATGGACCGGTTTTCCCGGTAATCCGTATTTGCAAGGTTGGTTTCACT; site = the 11-nt target
param class (str): category from recombinant barcode read abundance (log10); see ranges class A: < 0.1; class B: ≥ 0.1 and < 0.4; class C: ≥ 0.4

Worked examples follow.
| Primary Sequence | Label Value |
| --- | --- |
| CTCATATCTTGGGTTCTAACCTGTTGCCA (site CTCATATCTTG) | class B |
| TAACCTCCTTGGGTTCTAACCTGTTGCCT (site TAACCTCCTAG) | class C |
| TCTACATCTTGGGTTCTAACCTGTTGCCT (site TCTACCTCTAG) | class A |
| AACCCACCTTGGGTTCTAACCTGTTGCCT (site CACCCACCTAG) | class C |
| GGTCAAACTTGGGTTCTAACCTGTTGCCT (site GGTCCAACTAG) | class A |

For this sequence, which bin applies? TGGCCACCTTGGGTTCTAACCTGTTGCCT (site CGGCCACCTAG) class B

Which class does CTATGTGCTTGGGTTCTAACCTGTTGCGT (site CTATGTGCTAA) fall in? class A

// return the class label for GCCCCATCTTGGGTTCTAACCTGTTGCCT (site GCCCTATCTAG) class B

Which bin, given its recombinant barcode read abundance (log10), does CTATCCTCTTGGGTTCTAACCTGTTGCAT (site CTAGCCTCTAT) occupy? class C

Band for the recorded recombinant barcode read abundance (log10) of TCGAATTCTTGGGTTCTAACCTGTTGCCT (site TCGAATTCTAG) ? class B

###

Experiment: recombinant UMI read abundance after kanamycin selection (control-corrected) (log10(CPM+1)); higher = more efficient recombination; extreme values may be limits of the assay; sequences stand for … in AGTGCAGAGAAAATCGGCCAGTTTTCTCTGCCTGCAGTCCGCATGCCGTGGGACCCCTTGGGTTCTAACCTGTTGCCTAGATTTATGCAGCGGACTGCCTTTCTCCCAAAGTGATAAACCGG…AGGTTGGTTTCACT; site = the 11-nt donor
The reader will find reported recombinant UMI read abundance (log10) values listed item by item below.

| Primary Sequence | recombinant UMI read abundance (log10) |
| --- | --- |
| CGGAATGCATGGACCGGTTTTCCCGGTAATCCGTATTTGTT (site CGGAATCCTAA) | 0.00325 |

Short answer for ATCCAGGCATGGACCGGTTTTCCCGGTAATCCGTATTTGAG (site ATCCACGCTCT) : recombinant UMI read abundance (log10) was 0.013

Looking up ACTACAACATGGACCGGTTTTCCCGGTAATCCGTATTTGTG (site ACTACAACTCA) , I see its recombinant UMI read abundance (log10) listed as 0.339

###

Experiment: recombinant UMI read abundance after kanamycin selection (control-corrected) (log10(CPM+1)); higher = more efficient recombination; extreme values may be limits of the assay; sequences stand for … in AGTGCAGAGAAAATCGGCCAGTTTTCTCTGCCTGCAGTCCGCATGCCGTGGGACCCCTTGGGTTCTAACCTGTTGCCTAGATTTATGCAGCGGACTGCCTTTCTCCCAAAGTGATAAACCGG…AGGTTGGTTTCACT; site = the 11-nt donor
Measurement Kind: recombinant UMI read abundance (log10)
Write no unit; give the number alone.

| Primary Sequence | recombinant UMI read abundance (log10) |
| --- | --- |
| ATCTAAACATGGACCGGTTTTCCCGGTAATCCGTATTTGAC (site ATCTACACTGT) | 0.25 |
| GATTTATCATGGACCGGTTTTCCCGGTAATCCGTATTTGGC (site GATTTATCTGC) | 1.38 |
| GTGCCTGCATGGACCGGTTTTCCCGGTAATCCGTATTTGGT (site GTGCCTGCTAC) | 0.328 |

Proceeding to the next sequence to report its recombinant UMI read abundance (log10).
The sequence listed as AAATATGCATGGACCGGTTTTCCCGGTAATCCGTATTTGGA (site AAATATGCTTC) has a reported recombinant UMI read abundance (log10) of 1.25

###

Documented recombinant barcode read abundance (log10) across a set of sequences
Assay: recombinant barcode read abundance after kanamycin selection (control-corrected) (log10(CPM+1)); higher = more efficient recombination; sequences stand for … in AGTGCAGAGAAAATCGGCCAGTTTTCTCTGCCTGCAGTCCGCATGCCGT…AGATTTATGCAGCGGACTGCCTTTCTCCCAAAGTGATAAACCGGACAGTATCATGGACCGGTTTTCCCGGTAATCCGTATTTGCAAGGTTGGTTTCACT; site = the 11-nt target
Lab note: record the figure alone, no unit after it.

| Primary Sequence | Reported Result |
| --- | --- |
| CCGCCCGCTTGGGTTCTAACCTGTTGCCT (site CCGCCAGCTAG) | 0.00972 |
| CCAGTAACTTGGGTTCTAACCTGTTGCCT (site CCAGTGACTAG) | 0.082 |
| CCACCGTCTTGGGTTCTAACCTGTTGCCT (site CCACAGTCTAG) | 0.171 |

Form field recombinant barcode read abundance (log10), entry ACATAGTCTTGGGTTCTAACCTGTTGCAG (site ACATAGTCTCT) : 1.01

Documented recombinant barcode read abundance (log10) of AAGAATACTTGGGTTCTAACCTGTTGCCT (site GAGAATACTAC) : 0.011

Entry TCCAACTCTTGGGTTCTAACCTGTTGCAC (site TCCAACTCTGT) , recombinant barcode read abundance (log10) reported as 0.903

ACCTCTTCTTGGGTTCTAACCTGTTGCTA (site ACCTCTTCTTA) yielded recombinant barcode read abundance (log10) of 0.141

Recorded recombinant barcode read abundance (log10) (sequence TGCTGTTCTTGGGTTCTAACCTGTTGCCT (site TGCTGTACTAG) ): 0.0922

Item: CCACACTCTTGGGTTCTAACCTGTTGCCT (site CAACACTCTAG) | recombinant barcode read abundance (log10): 0.0891

Sure, the documented recombinant barcode read abundance (log10) for TAGGTTCCTTGGGTTCTAACCTGTTGCAT (site TAGGTGCCTAT) is 0.6

###

Measured recombinant barcode read abundance (log10) of individual entries
Assay: recombinant barcode read abundance after kanamycin selection (control-corrected) (log10(CPM+1)); higher = more efficient recombination; sequences stand for … in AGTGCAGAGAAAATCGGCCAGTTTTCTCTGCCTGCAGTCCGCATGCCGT…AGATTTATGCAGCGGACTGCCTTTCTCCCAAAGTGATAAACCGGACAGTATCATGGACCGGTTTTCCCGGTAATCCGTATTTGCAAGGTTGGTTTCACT; site = the 11-nt target
Returns: the value as a bare number; no unit string appended.

| Primary Sequence | Reported Result |
| --- | --- |
| CGCCAGCCTTGGGTTCTAACCTGTTGCCT (site CGCCTGCCTAG) | 0 |
| TCACATGCTTGGGTTCTAACCTGTTGCCT (site TCACCTGCTAG) | 0.0279 |

recombinant barcode read abundance (log10) for GCAGGGACTTGGGTTCTAACCTGTTGCAG (site GCACGGACTCT) is 0.552

Entry TCCCATCCTTGGGTTCTAACCTGTTGCCT (site TCCCATCCTAG) , recombinant barcode read abundance (log10) reported as 0.757

###

Assay: recombinant UMI read abundance after kanamycin selection (control-corrected) (log10(CPM+1)); higher = more efficient recombination; extreme values may be limits of the assay; sequences stand for … in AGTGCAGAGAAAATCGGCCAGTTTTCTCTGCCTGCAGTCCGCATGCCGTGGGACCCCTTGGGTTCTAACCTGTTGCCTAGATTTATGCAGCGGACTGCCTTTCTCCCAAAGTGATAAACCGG…AGGTTGGTTTCACT; site = the 11-nt donor
Measured recombinant UMI read abundance (log10) accompanies every entry in the list below.
Please reply with the value in numeric form only.

Worked examples, 10 sequences total:
| Primary Sequence | recombinant UMI read abundance (log10) |
| --- | --- |
| GAGCTCCCATGGACCGGTTTTCCCGGTAATCCGTATTTGAT (site GAGCTCTCTAT) | 2 |
| CCCTTCTCATGGACCGGTTTTCCCGGTAATCCGTATTTGTG (site CCCTTCTCTCT) | 0.00643 |
| GCTTGCCCATGGACCGGTTTTCCCGGTAATCCGTATTTGAT (site GATTGCCCTAT) | 0.0145 |
| TCCTTCTCATGGACCGGTTTTCCCGGTAATCCGTATTTGGG (site ACCTTCTCTCC) | 0.0101 |
| TGAGTCGCATGGACCGGTTTTCCCGGTAATCCGTATTTGTG (site TGAGTCGCTCA) | 0.474 |
| GAGCTCACATGGACCGGTTTTCCCGGTAATCCGTATTTGAG (site GAGCTCACTCT) | 0.665 |
| ACGCCGTCATGGACCGGTTTTCCCGGTAATCCGTATTTGGT (site ACGCCGTCTAC) | 1.61 |
| CATGTGGCATGGACCGGTTTTCCCGGTAATCCGTATTTGCT (site CATGTGGCTAG) | 1.39 |
| TTTCTCTCATGGACCGGTTTTCCCGGTAATCCGTATTTGTA (site ATTCTCTCTTA) | 0.353 |
| ACAAATCCATGGACCGGTTTTCCCGGTAATCCGTATTTGAC (site ACAAATCCTGT) | 0.255 |

Recorded recombinant UMI read abundance (log10) (sequence TCCACCGCATGGACCGGTTTTCCCGGTAATCCGTATTTGCA (site TCCACCGCTCG) ): 0

According to the records, this sequence TCCTACTCATGGACCGGTTTTCCCGGTAATCCGTATTTGCA (site TCATACTCTTG) displays recombinant UMI read abundance (log10) of 0

recombinant UMI read abundance (log10) reading for CAAGCGGCATGGACCGGTTTTCCCGGTAATCCGTATTTGTG (site CAAGCGACTCA) : 1.37

Memo: ATTCGTGCATGGACCGGTTTTCCCGGTAATCCGTATTTGTA (site ATTCGTGCTTA) , reported recombinant UMI read abundance (log10): 0.657

Recorded recombinant UMI read abundance (log10) (sequence GATTGGACATGGACCGGTTTTCCCGGTAATCCGTATTTGAC (site GATTGGACTGA) ): 0.0103

Entry GATTTATCATGGACCGGTTTTCCCGGTAATCCGTATTTGAA (site GATTTATCTTT) , recombinant UMI read abundance (log10) reported as 1.64

So for ACGACGGCATGGACCGGTTTTCCCGGTAATCCGTATTTGAA (site ACGACGGCTTT) , the logged recombinant UMI read abundance (log10) turned out to be 1.59

Reported recombinant UMI read abundance (log10) of AGCTTGTCATGGACCGGTTTTCCCGGTAATCCGTATTTGAG (site AGCTTGTCTCT) : 1.62

Memo: CCTGCACCATGGACCGGTTTTCCCGGTAATCCGTATTTGGA (site CCTGCACCTTC) , reported recombinant UMI read abundance (log10): 0.00678

Per the record, ACCTAGACATGGACCGGTTTTCCCGGTAATCCGTATTTGGG (site ACCTTGACTCC) has recombinant UMI read abundance (log10) of 0.0253
